The measurements presented in this section are drawn from PubChem BioAssay AID432.

- Test system: Bcl-2-related protein A1 (Mus musculus) (UniProt Q07440)
- Sequence (Q07440 whole entry, looked up): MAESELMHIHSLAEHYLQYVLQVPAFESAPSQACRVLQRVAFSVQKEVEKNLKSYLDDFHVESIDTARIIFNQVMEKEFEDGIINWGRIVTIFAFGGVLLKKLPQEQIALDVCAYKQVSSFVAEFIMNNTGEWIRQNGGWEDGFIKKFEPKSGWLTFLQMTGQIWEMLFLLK
- Experiment notes: displacement of Bid BH3 peptide from Bfl-1 – biochemical, fluorescence polarization, FITC-Bid, mouse, primary screen (AID 432)
- Recorded conditions: at 20 µM, hits give high values
About 15 (0.02%) of roughly 64,000 compounds were called active. A selection follows. Results with a measured potency or affinity are listed apart.
Measured displacement by item
Report the figure in % without appending any unit label.

Tell me the measured displacement of O=C(CC(c1ccccc1O)N1CCCCC1)N1CCCCC1 (stereo unspecified) , please.
-9.2

Item: O=C(c1ccccc1S(=O)(=O)NCc1ccccc1)N1CCCCC1
-2.9

Item: COc1cccc(OC)c1-c1nn2c(-c3ccccc3Cl)nnc2s1
-6.5

Item: COc1ccccc1OC(=O)c1ccc(SC)cc1OC
-2.3

Item: O=C(Nc1nncs1)C1COc2ccccc2O1 (stereo unspecified)
-5

***
Tell me the measured displacement of COc1cccc(OC)c1-c1nn2c(-c3ccco3)nnc2s1 , please.
-0.8

* * *

- Test system: Bcl-2-related protein A1 (Mus musculus)
- Experiment notes: displacement of Bid BH3 peptide from Bfl-1 – biochemical, fluorescence polarization, FITC-Bid, mouse, primary screen (AID 432)
- Recorded conditions: at 20 µM, hits give high values
About 15 (0.02%) of roughly 64,000 compounds were called active. Only a sample is shown. Potency and affinity values are given separately.
Measured parameter: displacement (%)
Report the figure in % without appending any unit label.

The cases that follow already have their displacement on record.
Which measured displacement belongs to CCn1c(SCC(=O)OC)nc2sc3c(c2c1=O)CCC3 , tested on Bcl-2-related protein A1 (Mus musculus)?
2.2

Item: Cc1csc(-c2cnn(-c3ccccc3)c2NC(=O)c2ccccc2)n1
-3.3

Item: COC(=O)C(C)n1cnc2c(cnn2-c2ccc(Cl)cc2)c1=O (stereo not drawn)
1.6

***
Which measured displacement belongs to Cn1c(NC(=O)c2cc(Br)ccc2Cl)cc(=O)n(C)c1=O , tested on Bcl-2-related protein A1 (Mus musculus)?
-6.3

Item: COc1ccc(OC)c(S(=O)(=O)n2nc(-c3ccccc3)cc2N)c1
-0.3

* * *

- Test system: Bcl-2-related protein A1 (Mus musculus) (UniProt Q07440)
- Experiment notes: displacement of Bid BH3 peptide from Bfl-1 – biochemical, fluorescence polarization, FITC-Bid, mouse, primary screen (AID 432)
- Recorded conditions: at 20 µM, hits give high values
The campaign covered roughly 64,000 compounds. About 15 (0.02%) were called active. Only a sample is shown. Results with a measured potency or affinity are listed apart.
Measured displacement by item
Report the figure in % without appending any unit label.

The cases that follow already have their displacement on record.
Tell me the measured displacement of COc1ccccc1-c1nc(C#N)c(N2CCN(C(c3ccccc3)c3ccccc3)CC2)o1 , please.
-2.4

Item: O=C(O)c1ccc(COc2c(F)c(F)cc(F)c2F)cc1
-4

Item: COCC(C)NC(=O)CCS(=O)(=O)c1nc(-c2ccc(OC)cc2)cc(C(F)(F)F)n1 (stereo not given)
6.4

Item: CSc1nc(-c2ccccc2O)nc(-c2ccccc2O)n1
4.5

Item: CCOC(=O)Nc1c(O)ccc2oc(C)c(-c3ccccc3)c12
1.9

Item: COc1cccc(-c2nc(-c3ccccc3)no2)c1
-9.1

Item: CCCCCNC(=O)C(C#N)c1nc2ccccc2nc1N1CCCC1 (stereo not given)
34.3

Item: Cc1ccc(-c2nnc(COc3cccc(-n4cnnn4)c3)o2)cc1
-4.7

***
Tell me the measured displacement of O=C(CSc1nnnn1C1CCCCC1)Nc1cccc(NC(=O)c2ccco2)c1 , please.
6.6

Item: NS(=O)(=O)c1ccc(-n2nncc2C23CC4CC(CC(C4)C2)C3)cc1
-2.1

Item: COC(=O)c1ccc(C2C(C(=O)Nc3ccc(C)cc3C)=C(C)Nc3ncnn32)cc1 (stereo not given)
-1.9

Item: COc1ccc(C(C)=O)c2c(O)cccc12
-0.9

Item: COCCNC(=O)C(c1ccccc1)N(Cc1cccs1)C(=O)Cn1nnc2ccccc21 (stereo not given)
4.1

Item: CN(C)S(=O)(=O)c1ccc(C(=O)Nc2ccc(F)cc2F)cc1
-3.7

* * *

Measured displacement by item
- Test system: Bcl-2-related protein A1 (Mus musculus)
- Experiment notes: displacement of Bid BH3 peptide from Bfl-1 – biochemical, fluorescence polarization, FITC-Bid, mouse, primary screen (AID 432)
- Recorded conditions: at 20 µM, hits give high values
Out of some 64,000 compounds screened, about 15 (0.02%) were called active. The list is a sample of the results. Potency and affinity values are given separately.
Report the figure in % without appending any unit label.

The cases that follow already have their displacement on record.
Tell me the measured displacement of Cc1ccc(C2C(C#N)=C(N)SC(N)=C2C#N)c(C)c1 , please.
-31.9

Item: COc1ccc(-c2nnc3sc(-c4ccccc4OC)nn23)cc1
0.2

Item: CCn1c(N)c(C(=O)NC)sc1=S
-2

Item: COc1cccc(-c2nn(C)c3sc(C(=O)NCc4ccccn4)cc23)c1
3.4

Item: O=c1n(-c2ccccc2)c(=O)n(Cc2ccccn2)n1Cc1ccccn1
-5.3

Now turn to the next compound.
Tell me the measured displacement of CC(C)(C)NC(=O)NC(=O)COC(=O)C1CC(=O)N(Cc2ccccc2)C1 (stereo unspecified) , please.
-5.1

* * *

- Test system: Bcl-2-related protein A1 (Mus musculus)
- Experiment notes: displacement of Bid BH3 peptide from Bfl-1 – biochemical, fluorescence polarization, FITC-Bid, mouse, primary screen (AID 432)
- Recorded conditions: at 20 µM, hits give high values
About 15 (0.02%) of roughly 64,000 compounds were called active. Not all results are given here. Measured potencies and affinities stand elsewhere.
Measured displacement by item
Report the figure in % without appending any unit label.

The cases that follow already have their displacement on record.
Tell me the measured displacement of CC(C)(C)Sc1nc(O)cc(=O)[nH]1 , please.
-4.4

Item: O=C(NCCN1C(=O)C2C3C=CC(C3)C2C1=O)NCc1ccccc1 (stereo unspecified)
8.8

***
Tell me the measured displacement of Cc1cc(O)ccc1Nc1nc2ccccc2nc1Nc1ccc(O)cc1C , please.
-1.4

* * *

Measured displacement by item
- Test system: Bcl-2-related protein A1 (Mus musculus) (UniProt Q07440)
- Experiment notes: displacement of Bid BH3 peptide from Bfl-1 – biochemical, fluorescence polarization, FITC-Bid, mouse, primary screen (AID 432)
- Recorded conditions: at 20 µM, hits give high values
The campaign covered roughly 64,000 compounds. About 15 (0.02%) were called active. Only a sample is shown. Measured potencies and affinities stand elsewhere.
Report the figure in % without appending any unit label.

The cases that follow already have their displacement on record.
Tell me the measured displacement of CCCc1[nH]nc2c1C(CCc1ccccc1)C(C#N)=C(N)O2 (stereo unspecified) , please.
-3.6

Item: CC(C)(O)c1nnn(-c2ccccc2)c1C(F)(F)F
-3

Item: CN(C(=O)COC(=O)COc1ccccc1F)C1CCS(=O)(=O)C1 (stereo unspecified)
-1.5

Now turn to the next molecule.
Tell me the measured displacement of CCOc1ccc(OCC)c(NC(=O)CSc2nnc(-c3cccnc3)o2)c1 , please.
-6

* * *

- Test system: Bcl-2-related protein A1 (Mus musculus)
- Experiment notes: displacement of Bid BH3 peptide from Bfl-1 – biochemical, fluorescence polarization, FITC-Bid, mouse, primary screen (AID 432)
- Recorded conditions: at 20 µM, hits give high values
Among all 64,000 compounds or so, about 15 (0.02%) were called active. Not all results are given here. Results with a measured potency or affinity are listed apart.
Measured parameter: displacement (%)
Report the figure in % without appending any unit label.

The cases that follow already have their displacement on record.
Tell me the measured displacement of Nc1nc(-c2cccc(NS(=O)(=O)c3ccccc3)c2)cs1 , please.
5.8

Item: O=C(O)c1ccc(NS(=O)(=O)c2ccc(Cl)cc2)cc1
-8.2

Now turn to the next compound.
Tell me the measured displacement of COC(=O)CCC(=O)Nc1ccc(NC(C)=O)cc1 , please.
0.3

* * *

- Test system: Bcl-2-related protein A1 (Mus musculus) (UniProt Q07440)
- Experiment notes: displacement of Bid BH3 peptide from Bfl-1 – biochemical, fluorescence polarization, FITC-Bid, mouse, primary screen (AID 432)
- Recorded conditions: at 20 µM, hits give high values
The whole screen tested about 64,000 compounds, of which about 15 (0.02%) were called active. Only a sample is shown. Measured potencies and affinities stand elsewhere.
Measured parameter: displacement (%)
Report the figure in % without appending any unit label.

The cases that follow already have their displacement on record.
Tell me the measured displacement of Cc1ccccc1OCC(=O)NCCN(C)C , please.
-12

Item: CCC(C)c1c(O)nc(SCC(=O)c2ccccc2)[nH]c1=O (stereo unspecified)
-7.8

Item: O=C(c1cc2c(s1)CCCCC2)N1CCN(c2ncccn2)CC1
8.4

Item: Cc1ccc(S(=O)(=O)NC(=O)COc2ccccc2C(N)=O)cc1
-4.3

***
Tell me the measured displacement of Cc1cc(C)cc(N2CC34C=CC(O3)C(C(=O)OCC(=O)NCc3ccco3)C4C2=O)c1 (stereo unspecified) , please.
-10.1

Item: CCC/C(O)=C1\C(=O)CC(C)(C)CC1=NCCO
2.8

Item: CCCCCOc1ccc(C(=O)NC(CCC)C(=O)O)cc1 (stereo unspecified)
0.1

Item: NC(=O)CSc1nnc(-c2ccc(S(=O)(=O)N3CCCC3)cc2)n1Cc1ccco1
-5.3

Item: Cc1cc(NCc2ccc(F)cc2Cl)n2nnnc2n1
-1.6

Item: CC1CN(C(=O)c2ccc(C(=O)c3ccccc3)cc2)CC(C)O1 (stereo unspecified)
-0.8

Item: c1cn(-c2ncnc3sc4c(c23)CCCC4)cn1
-0.8
